Exercise: for every item that follows, state its recorded log10 of IC50.
TEST SYSTEM: γ-secretase (Homo sapiens, UniProt P49768)
Construct: endogenous in cells; host or cells: SKNBE2 human neuroblastoma cells (carrying hAPP 695 wild type as substrate)
TEST NAME: Screening for γ-secretase-modulating activity: Aβ42 in supernatant of SKNBE2 cells carrying hAPP 695 wild type (Alphalisa)
Format: cell-based
EXPERIMENTAL CONDITIONS: SKNBE2 human neuroblastoma cells carrying hAPP 695 wild type, overnight incubation, Aβ42 in cell supernatant
Answers are given as log10 of IC50 in nM.

Q: Return reported log10 of IC50; argument: Cc1cn(-c2ccc3n(c2=O)C[C@@H](C)N(C(C)c2cn(C4CC4)c4cc(F)c(Cl)cc24)C3=O)cn1 (single isomer, unassigned) [compound 248]
Ans: 0.90

Q: Return reported log10 of IC50; argument: CCn1cc(C(C)N2C(=O)c3ccc(-n4cnc(C)c4)c(=O)n3CC2C)c2cc(C(F)(F)F)ccc21 (single isomer, unassigned) [compound 217]
Ans: 0.48

Q: Return reported log10 of IC50; argument: Cc1cn(-c2ccc3n(c2=O)C[C@@H](C)N(Cc2cc(OC(F)(F)F)cc(C(F)(F)F)c2)C3=O)cn1 [compound 140]
Ans: 1.78

Q: Return reported log10 of IC50; argument: Cc1cn(-c2ccc3n(c2=O)CCN(Cc2cccc(Cl)c2)C3=O)cn1 [compound 25]
Ans: 3.23

Q: Return reported log10 of IC50; argument: Cc1cn(-c2ccc3n(c2=O)C[C@@H](C)N(Cc2ccc(C)c(-n4cccn4)c2)C3=O)cn1 [compound 114]
Ans: 3.28

Q: Return reported log10 of IC50; argument: CCn1cc(C(C)N2C(=O)c3ccc(-n4cnc(C)c4)c(=O)n3CC2C)c2cc(Cl)cc(F)c21 (single isomer, unassigned) [compound 221]
Ans: 0.70

====

TEST SYSTEM: γ-secretase (Homo sapiens)
Construct: endogenous in cells; host or cells: SKNBE2 human neuroblastoma cells (carrying hAPP 695 wild type as substrate)
TEST NAME: Screening for γ-secretase-modulating activity: Aβ42 in supernatant of SKNBE2 cells carrying hAPP 695 wild type (Alphalisa)
Format: cell-based
EXPERIMENTAL CONDITIONS: SKNBE2 human neuroblastoma cells carrying hAPP 695 wild type, overnight incubation, Aβ42 in cell supernatant
Experimental: Screening was carried out using SKNBE2 human neuroblastoma cells carrying the hAPP 695—wild type, grown in Dulbecco's Modified Eagle's Medium/Nutrient mixture F-12 (DMEM/NUT-mix F-12) (HAM) provided by Invitrogen (cat no. 10371-029) containing 5% Serum/Fe supplemented with 1% non-essential amino acids, 1-glutamine 2 mM, Hepes 15 mM, penicillin 50 U/ml (units/ml) en streptomycin 50 μg/ml. Cells were grown to near confluency. […]
PROPERTY NAME: pIC50
Bear in mind: pIC50 is minus log10 of a mol/L concentration; give just that figure.

Q: Return reported pIC50; argument: CCn1cc(C(C)N2C(=O)c3ccc(-n4cnc(C)c4)c(=O)n3C[C@H]2C)c2ccc(C(F)(F)F)cc21 (single isomer, unassigned) [compound 244]
Ans: 6.43

Q: Return reported pIC50; argument: `COc1ccc(CN2C(=O)c3ccc(-n4cnc(C)c4)c(=O)n3C[C@H]2C)cc1C(F)(F)F`
Ans: 6.25

Q: Return reported pIC50; argument: `Cc1cn(-c2ccc3n(c2=O)CCN(Cc2cccc(C(F)(F)F)c2)C3=O)cn1`
Ans: 6.13

Q: Return reported pIC50; argument: `Cc1cn(-c2ccc3n(c2=O)C[C@@H](C)N(CCc2cc(Cl)ccc2Cl)C3=O)cn1`
Ans: 6.68

====

Exercise: for every item that follows, state its recorded IC50.
TEST SYSTEM: γ-secretase (Homo sapiens, UniProt P49768)
Construct: endogenous in cells; host or cells: SKNBE2 human neuroblastoma cells (carrying hAPP 695 wild type as substrate)
TEST NAME: Screening for γ-secretase-modulating activity: Aβ42 in supernatant of SKNBE2 cells carrying hAPP 695 wild type (Alphalisa)
Format: cell-based
EXPERIMENTAL CONDITIONS: SKNBE2 human neuroblastoma cells carrying hAPP 695 wild type, overnight incubation, Aβ42 in cell supernatant
Record the result as a number with its unit.

Q: Return reported IC50; argument: Cc1cn(-c2ccc3n(c2=O)CCN(C(C)c2cc(Cl)cc(Cl)c2)C3=O)cn1 (single isomer, unassigned) [compound 208]
Ans: 3890 nM

Q: Return reported IC50; argument: `Cc1cn(-c2ccc3n(c2=O)C[C@@H](C)N(Cc2ccc(C(F)(F)F)c(N4CCCCC4)c2)C3=O)cn1`
Ans: 40 nM

Q: Return reported IC50; argument: `Cc1cn(-c2ccc3n(c2=O)CCN(CC2(c4ccc(Cl)cc4)CC2)C3=O)cn1`
Ans: 270 nM

Q: Return reported IC50; argument: `Cc1cn(-c2ccc3n(c2=O)C[C@@H](C)N(Cc2cc(C(F)(F)F)ccc2C)C3=O)cn1`
Ans: 190 nM

====

Structures can show the parent of a compound that is named as a salt.
Exercise: for every item that follows, state its recorded melting point.
Just the number in °C, nothing appended.

Q: Return reported melting point; argument: `Cc1cn(-c2ccc3n(c2=O)CCN(c2ccccc2C)C3=O)cn1`
Ans: 222.2

Q: Return reported melting point; argument: `Cc1cn(-c2ccc3n(c2=O)CCN(Cc2ccc(Cl)c(Cl)c2)C3=O)cn1`
Ans: 190.8

Q: Return reported melting point; argument: `Cc1cn(-c2ccc3n(c2=O)CCN(Cc2ccccc2N2CCCCC2)C3=O)cn1`
Ans: 167.4

Q: Return reported melting point; argument: Cc1cn(-c2ccc3n(c2=O)C[C@@H](C)N(CCc2cccc(Cl)c2Cl)C3=O)cn1 (as salt: HCl)
Ans: 218

Q: Return reported melting point; argument: Cc1cn(-c2ccc3n(c2=O)C[C@@H](C)N(C(C)c2cccc(OC(F)(F)F)c2)C3=O)cn1 (single isomer, unassigned) (as salt: HCl)
Ans: 232.9

Q: Return reported melting point; argument: Cc1cn(-c2ccc3n(c2=O)CC(C)N(Cc2cc(OCC4CC4)cc(C(F)(F)F)c2)C3=O)cn1.Cl (stereo not shown)
Ans: 175.4

Q: Return reported melting point; argument: `CCn1cc(CN2C(=O)c3ccc(-n4cnc(C)c4)c(=O)n3C[C@H]2C)c2cc(OC)c(Cl)cc21`
Ans: 150

====

Exercise: for every item that follows, state its recorded melting point.

Q: Return reported melting point; argument: Cc1cn(-c2ccc3n(c2=O)CC(C)N(C(C)c2cc(C(F)(F)F)cc(C(F)(F)F)c2)C3=O)cn1.Cl (single isomer, unassigned) [compound 112]
Ans: 259 °C

Q: Return reported melting point; argument: Cc1cn(-c2c(Br)cc3n(c2=O)C[C@@H](C)N(Cc2cc(C(F)(F)F)cc(C(F)(F)F)c2)C3=O)cn1 [compound 157]
Ans: 147.7 °C

Q: Return reported melting point; argument: Cc1cn(-c2ccc3n(c2=O)CCN(C(C)c2cc(Cl)cc(Cl)c2)C3=O)cn1 (single isomer, unassigned) [compound 208]
Ans: 206 °C

Q: Return reported melting point; argument: Cc1cn(-c2ccc3n(c2=O)CCN(C(C)c2ccc(Cl)c(Cl)c2)C3=O)cn1 (single isomer, unassigned) [9a]
Ans: 206.8 °C

====

Exercise: for every item that follows, state its recorded log10 of IC50.
TEST SYSTEM: γ-secretase (Homo sapiens)
Construct: endogenous in cells; host or cells: SKNBE2 human neuroblastoma cells (carrying hAPP 695 wild type as substrate)
TEST NAME: Screening for γ-secretase-modulating activity: Aβ42 in supernatant of SKNBE2 cells carrying hAPP 695 wild type (Alphalisa)
Type: cell-based
EXPERIMENTAL CONDITIONS: SKNBE2 human neuroblastoma cells carrying hAPP 695 wild type, overnight incubation, Aβ42 in cell supernatant
Answers are given as log10 of IC50 in nM.

Q: Return reported log10 of IC50; argument: Cc1cc(CN2CCn3c(ccc(-n4cnc(C)c4)c3=O)C2=O)cc(C(F)(F)F)c1 [compound 60]
Ans: 2.82

Q: Return reported log10 of IC50; argument: Cc1cn(-c2ccc3n(c2=O)C[C@@H](C)N(Cc2cc(OC(C)C)c(Cl)cc2F)C3=O)cn1 [compound 163]
Ans: 2.23

Q: Return reported log10 of IC50; argument: Cc1cn(-c2ccc3n(c2=O)CC(C)N(C(C)c2cc(C(F)(F)F)cc(C(F)(F)F)c2)C3=O)cn1.Cl (single isomer, unassigned) [compound 111]
Ans: 1.85

Q: Return reported log10 of IC50; argument: Cc1cn(-c2ccc3n(c2=O)C[C@@H](C)N(Cc2cn(C)c4cc(F)ccc24)C3=O)cn1 [compound 242]
Ans: 2.41

Q: Return reported log10 of IC50; argument: Cc1cn(-c2ccc3n(c2=O)C[C@@H](C)N(Cc2cc(N4CCOC(C(F)(F)F)C4)cc(C(F)(F)F)c2)C3=O)cn1 (mixture of isomers) [compound 153]
Ans: 1.78

Q: Return reported log10 of IC50; argument: Cc1cn(-c2ccc3n(c2=O)C[C@@H](C)N(Cc2cn(C(C)C)c4cc(Br)ccc24)C3=O)cn1 [compound 200]
Ans: 1.30

Q: Return reported log10 of IC50; argument: CCn1cc(C(C)N2C(=O)c3ccc(-n4cnc(C)c4)c(=O)n3CC2C)c2cc(Cl)cc(F)c21 (single isomer, unassigned) [compound 220]
Ans: 2.23
